So I've got a bunch of molecules here, and I need their TGI values.
# System: K-562 leukemia
# testDetails: NCI tumour cell line growth inhibition, 48 h
Numbers only, in µM.

INSERT INTO results (molecule, unitlabel, value) VALUES
  ('COc1cc(/C=C2\CC3C4CC=C5C[C@@H](OC(C)=O)CC[C@]5(C)C4CC[C@]3(C)C2=O)ccc1OCCCn1ccnc1 (stereo not given in full)', 'µM', 24.7);

Read the next record carefully.
get_value(item= CCOC(=O)c1c(Br)c(-c2ccc(Br)cc2)c(Br)n1C , readout=TGI) returns 35.1

---

So I've got a bunch of molecules here, and I need their TGI values.
# System: SF-539 CNS
# testDetails: NCI tumour cell line growth inhibition, 48 h
Numbers only, in µM.

A selection of reference data follows.
INSERT INTO measurements (molecule, unitlabel, value) VALUES
  ('C(CCC[Te][Te]CCCCCCOC1CCCCO1)CCOC1CCCCO1 (stereo unspecified)', 'µM', 32.1),
  ('CCCCCCCCCCCCCCCCSCC(COC)COP(=O)([O-])OCC[N+](C)(C)C (stereo unspecified)', 'µM', 29.7),
  ('C=C1C(=O)O[C@H]2[C@H]1CC/C(COC(=O)NCc1ccc(Cn3c(=O)sn(CCCCl)c3=O)cc1)=C\CC[C@@]1(C)O[C@@H]21', 'µM', 3.3),
  ('COc1cc(/C=C\[N+](=O)[O-])ccc1OCc1ccccc1', 'µM', 4.18),
  ('O=C1CSC(/C(=C\c2ccc(Cl)cc2)c2nc3ccccc3[nH]2)=N1', 'µM', 2.06),
  ('NC1CCN(c2nc(Nc3cccc(C(F)(F)F)c3)c3c(=O)[nH]ccc3n2)CC1', 'µM', 3.26),
  ('CCOC(=O)c1sc2nc(SC)nc3c2c1NC(=O)CN3c1cccc(F)c1', 'µM', 15.7),
  ('OCC1OC(n2ccc3c(NO)ncnc32)C(O)C1O (stereo unspecified)', 'µM', 1.29),
  ('Cn1c(=O)nc2n(-c3cccc(F)c3)c3ccccc3nc-2c1=O', 'µM', 66);

Read the next record carefully.
get_value(item= COc1ccc(/C=C/c2nc(NCCCN(C)C)c3ccccc3n2)cc1 , readout=TGI) returns 3.15

Values were extracted from PubChem BioAssay (NCI).
